# ASSAY: chemical genetic growth profiling, strain panel (AID 1159580);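 further: tested at 20 µM; growth read once vehicle control cultures reached saturation at 30 °C; 1 = growth at the plate median or of vehicle wells; lower values mean less growth of the strain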
# CONDITION: S. cerevisiae deletion strains, growth OD, locus YPL241C, strain CIN2, stronger effect = lower value
Out of some 5,500 compounds screened, about 2,000 (36%) were called active. Not shown: some 18% with an inconclusive outcome. The list shows a part of the results.

{"columns": ["SMILES RECORD", "normalized growth"],
 "data": [
  ["COC(CNc1cccc(Cl)c1C#N)OC", "0.95 (inactive)"],
  ["O=C(NC1CCCCC1)N1CCN(c2ncccc2C(F)(F)F)CC1", "0.985 (inactive)"],
  ["COc1ccccc1N1CCN(CCN(C(=O)c2ccc(I)cc2)c2ccccn2)CC1", "0.995 (inactive)"],
  ["COc1cc(NC(=S)N2CCN(c3ccccc3OC)CC2)c(OC)cc1Cl", "0.895 (inactive)"],
  ["O=C(Nc1ccc(Cl)cc1)N1CCN(c2ncccc2C(F)(F)F)CC1", "0.92 (inactive)"],
  ["COc1ccccc1N1CCN(CCN(C(=O)C2CCCCC2)c2ccccn2)CC1", "1.01 (inactive)"]
]}

----------
# ASSAY: chemical genetic growth profiling, strain panel (AID 1159580)
# CONDITION: S. cerevisiae deletion strains, growth OD, locus YNL183C, strain NPR1, stronger effect = lower value
Among all 5,500 compounds or so, about 2,000 (36%) were called active. Not shown: some 18% with an inconclusive outcome. Some of the results follow.
EXPERIMENTAL READOUT: normalized growth

{"columns": ["COMPOUND", "MEAS VALUE"],
 "data": [
  ["C[C@H]1OC(O[C@H]2[C@@H](O)CC(O[C@H]3[C@@H](O)C[C@H](O[C@H]4CC[C@]5(C)C6CC[C@]7(C)[C@@H](C8=CC(=O)OC8)[C@@H](O)C[C@]7(O)[C@@H]6CC[C@@H]5C4)O[C@@H]3C)O[C@@H]2C)C[C@H](O)C1O (stereo not given in full)", 0.989],
  ["C[C@H]1O[C@@H](O[C@H]2[C@@H](O)C[C@H](O[C@H]3[C@@H](O)C[C@H](O[C@H]4CC[C@]5(C)C6CC[C@]7(C)[C@@H](C8=CC(=O)OC8)CC[C@]7(O)C6CC[C@@H]5C4)O[C@@H]3C)O[C@@H]2C)C[C@H](O)[C@@H]1O (stereo not given in full)", 0.984],
  ["C[C@]12CC[C@H](O)C[C@H]1CCC1C2CC[C@]2(C)[C@@H](C3=CC(=O)OC3)[C@@H](O)C[C@]12O (stereo not given in full)", 0.93],
  ["C[C@H]1O[C@@H](O[C@H]2[C@@H](O)C[C@H](O[C@H]3[C@@H](O)C[C@H](O[C@H]4CC[C@]5(C)C6C[C@@H](O)[C@]7(C)[C@@H](C8=CC(=O)OC8)CC[C@]7(O)C6CC[C@@H]5C4)O[C@@H]3C)O[C@@H]2C)C[C@H](O)[C@@H]1O (stereo not given in full)", 0.985],
  ["COc1ccc(-c2cc(=O)c3c(O)cc(O)cc3o2)cc1O", 0.921]
]}

----------
# ASSAY: chemical genetic growth profiling, strain panel (AID 1159580);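 further: tested at 20 µM; growth read once vehicle control cultures reached saturation at 30 °C; 1 = growth at the plate median or of vehicle wells; lower values mean less growth of the strain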
# CONDITION: S. cerevisiae deletion strains, growth OD, locus YCL061C, strain MRC1, stronger effect = lower value
Screen size: about 5,500 compounds; about 2,000 (36%) were called active. Another 18% or so got no clear call; they are omitted. Some of the results follow.

{"columns": ["COMPOUND", "normalized growth"],
 "data": [
  ["COc1ccc(-c2cc(=O)c3c(O)c(OC)c(O[C@H]4O[C@H](CO[C@@H]5O[C@@H](C)[C@H](O)[C@@H](O)[C@H]5O)[C@@H](O)[C@H](O)[C@H]4O)cc3o2)cc1", 1],
  ["C[C@H]1O[C@@H](O[C@H]2[C@@H](O)C[C@H](O[C@H]3[C@@H](O)C[C@H](O[C@H]4CC[C@]5(C)C6CC[C@]7(C)[C@@H](C8=CC(=O)OC8)CC[C@]7(O)C6CC[C@@H]5C4)O[C@@H]3C)O[C@@H]2C)C[C@H](O)[C@@H]1O (stereo partly specified)", 1.01],
  ["CC(=O)c1ccccc1OC(=O)c1c(-c2c(Cl)cccc2Cl)noc1C", 0.996],
  ["C[C@H]1O[C@@H](O[C@H]2[C@@H](O)C[C@H](O[C@H]3[C@@H](O)C[C@H](O[C@H]4CC[C@]5(C)C6C[C@@H](O)[C@]7(C)[C@@H](C8=CC(=O)OC8)CC[C@]7(O)C6CC[C@@H]5C4)O[C@@H]3C)O[C@@H]2C)C[C@H](O)[C@@H]1O (stereo partly specified)", 1.01],
  ["CCC(=O)OCC(=O)C1(OC(=O)CC)C(C)CC2C3CCC4=CC(=O)C=CC4(C)C3(Cl)C(O)CC21C (stereo unspecified)", 0.991],
  ["C[C@@H]1O[C@@H](O[C@H]2CC[C@]3(C=O)C4CC[C@]5(C)[C@@H](C6=CC(=O)OC6)CC[C@]5(O)C4CC[C@]3(O)C2)[C@H](O)[C@H](O)[C@H]1O (stereo partly specified)", 1]
]}

----------
# ASSAY: chemical genetic growth profiling, strain panel (AID 1159580);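 further: tested at 20 µM; growth read once vehicle control cultures reached saturation at 30 °C; 1 = growth at the plate median or of vehicle wells; lower values mean less growth of the strain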
# CONDITION: S. cerevisiae deletion strains, growth OD, locus YMR231W, strain pep5, stronger effect = lower value
About 2,000 (36%) of roughly 5,500 compounds were called active. About 18% were inconclusive and are not listed. This is one part of the list.

{"columns": ["COMPOUND", "normalized growth"],
 "data": [
  ["C[C@]12CCC3C(CC[C@]4(O)C[C@@H](O)CC[C@]34C=O)[C@@]1(O)CCC2C1=CC(=O)OC1 (stereo partly specified)", 0.999],
  ["CC(C)C[C@@H](NC(=O)OCC1c2ccccc2-c2ccccc21)C(=O)O", 0.971],
  ["COC1C(O)C(O[C@H]2CC[C@]3(C=O)C4C(CC[C@]3(O)C2)[C@@]2(O)CC[C@H](C3=CC(=O)OC3)[C@@]2(C)C[C@H]4OC(C)=O)OC(C)C1OC(C)=O (stereo partly specified)", 1.02],
  ["COC1CC(OC2CCC3(C)C(CCC4C3CCC3(C)C(C5=CC(=O)OC5)C(OC(C)=O)CC43O)C2)OC(C)C1O (stereo unspecified)", 1.02],
  ["C[C@H]1O[C@@H](O[C@H]2[C@@H](O)C[C@H](O[C@H]3[C@@H](O)C[C@H](O[C@H]4CC[C@]5(C)C6CC[C@]7(C)[C@@H](C8=CC(=O)OC8)CC[C@]7(O)C6CC[C@@H]5C4)O[C@@H]3C)O[C@@H]2C)C[C@H](O)[C@@H]1O (stereo partly specified)", 0.992],
  ["CC1(C)C(=O)CC[C@@]2(C)C1C[C@@H](O)[C@@]1(C)C3=CC(=O)O[C@@H](c4ccoc4)[C@]3(C)CCC21 (stereo partly specified)", 1.02]
]}

----------
# ASSAY: chemical genetic growth profiling, strain panel (AID 1159580);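 further: tested at 20 µM; growth read once vehicle control cultures reached saturation at 30 °C; 1 = growth at the plate median or of vehicle wells; lower values mean less growth of the strain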
# CONDITION: S. cerevisiae deletion strains, growth OD, locus YLR027C, strain aat2, stronger effect = lower value
The campaign covered roughly 5,500 compounds. About 2,000 (36%) were called active. About 18% were inconclusive and are not listed. The list shows a part of the results.
Measured normalized growth values are reported for all entries that follow.

{"columns": ["COMPOUND", "normalized growth"],
 "data": [
  ["CC(=O)OC1CC[C@@]2(C)C(CCC3C2CC[C@]2(C)C(C4=CC(=O)OC4)C(OC(C)=O)CC32O)C1 (stereo partly drawn)", 0.983],
  ["COc1nc(NC(C)C)nc(NC(C)C)n1", 1.03],
  ["CSc1nc(NC(C)C)nc(NC(C)C)n1", 0.967],
  ["COC1CC(OC2CCC3(C)C(CCC4C3CCC3(C)C(C5=CC(=O)OC5)C(OC(C)=O)CC43O)C2)OC(C)C1O (stereo not drawn)", 1.01],
  ["CC1Cc2ccccc2N1NC(=O)c1ccc(Cl)c(S(N)(=O)=O)c1 (stereo not drawn)", 1],
  ["CN(C)C(=O)C(CCN1CCC(O)(c2ccc(Cl)cc2)CC1)(c1ccccc1)c1ccccc1", 0.976],
  ["COC(=O)C[C@H]1C(C)(C)[C@@H](O)[C@@H]2CC3=C4CC(O)O[C@@H](c5ccoc5)[C@]4(C)CCC3[C@@]1(C)C2=O (stereo partly drawn)", 1.04],
  ["CC1(C)O[C@@H]2CC3C4C[C@H](F)C5=CC(=O)CC[C@]5(C)C4[C@@H](O)C[C@]3(C)[C@]2(C(=O)CO)O1 (stereo partly drawn)", 1.02],
  ["CC(C)Nc1nc(Cl)nc(NC(C)C)n1", 0.995],
  ["COc1ccccc1N1CCN(CCCNc2cc(=O)n(C)c(=O)n2C)CC1", 1.01],
  ["C[C@@H]1O[C@@H](O[C@H]2CC[C@]3(C=O)C4CC[C@]5(C)[C@@H](C6=CC(=O)OC6)CC[C@]5(O)C4CC[C@]3(O)C2)[C@H](O)[C@H](O)[C@H]1O (stereo partly drawn)", 0.999],
  ["CC1CCCC(C)N1NC(=O)c1ccc(Cl)c(S(N)(=O)=O)c1 (stereo not drawn)", 1.03],
  ["COc1ccc(-c2cc(=O)c3c(O)cc(O)cc3o2)cc1", 0.97],
  ["C[N+]1(C)C[C@H](O)[C@H](C(=O)[O-])C1", 1.01],
  ["COC1C(O)C(O[C@H]2CC[C@]3(C=O)C4C(CC[C@]3(O)C2)[C@@]2(O)CC[C@H](C3=CC(=O)OC3)[C@@]2(C)C[C@H]4OC(C)=O)OC(C)C1OC(C)=O (stereo partly drawn)", 0.979],
  ["O=C(O)CCc1nc(-c2ccccc2)c(-c2ccccc2)o1", 0.966],
  ["Oc1ccc2c3c1OC1[C@@H](O)CC[C@@]4(O)[C@@H](C2)N(CC2CCC2)CC[C@]314 (stereo partly drawn)", 1],
  ["O=c1c(O)cc([C@H]2Oc3cc(O)cc(O)c3C[C@H]2O)cc2c([C@H]3Oc4cc(O)cc(O)c4C[C@H]3O)cc(O)c(O)c12", 1.02]
]}
